Target: human TLR2 (Pam2CSK4, TLR2/6 agonist) in HEK-Blue hTLR2 cells (Homo sapiens, UniProt O60603)
Construct: host or cells: HEK-Blue hTLR2 (HEK-293)
Sequence (O60603 19-784 limits assumed): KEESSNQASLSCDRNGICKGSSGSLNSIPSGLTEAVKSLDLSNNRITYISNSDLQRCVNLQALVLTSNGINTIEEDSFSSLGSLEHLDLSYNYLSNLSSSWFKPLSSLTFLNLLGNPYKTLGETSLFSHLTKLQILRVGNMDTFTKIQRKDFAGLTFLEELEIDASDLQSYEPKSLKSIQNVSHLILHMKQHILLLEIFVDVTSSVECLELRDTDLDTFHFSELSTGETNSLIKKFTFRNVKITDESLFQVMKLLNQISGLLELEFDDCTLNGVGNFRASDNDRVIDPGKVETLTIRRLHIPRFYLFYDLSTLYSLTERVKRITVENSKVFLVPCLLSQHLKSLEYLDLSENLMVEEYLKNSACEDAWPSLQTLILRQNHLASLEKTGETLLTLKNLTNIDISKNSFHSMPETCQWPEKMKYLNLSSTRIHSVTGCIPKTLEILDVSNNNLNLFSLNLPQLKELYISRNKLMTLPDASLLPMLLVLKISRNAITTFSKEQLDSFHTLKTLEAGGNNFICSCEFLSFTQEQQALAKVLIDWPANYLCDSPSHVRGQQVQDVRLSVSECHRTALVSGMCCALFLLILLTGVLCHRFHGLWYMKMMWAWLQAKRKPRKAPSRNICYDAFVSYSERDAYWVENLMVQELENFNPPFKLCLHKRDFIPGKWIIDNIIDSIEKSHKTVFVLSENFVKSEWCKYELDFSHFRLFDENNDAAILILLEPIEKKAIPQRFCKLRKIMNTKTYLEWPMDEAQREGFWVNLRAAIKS
Assay: HEK-Blue hTLR2 antagonism assay (SEAP reporter) with Pam2CSK4 as agonist
Type: cell-based
Conditions: 2 h compound pre-incubation, approx. 3×EC50 Pam2CSK4, 18 h, SEAP OD 655 nm, background subtracted
Description: Synthetic diacylated lipoprotein (Pam2CSK4, TLR2/6 agonist) and synthetic triacylated lipoprotein (Pam3CSK4, TLR1/2 agonist) were obtained from InvivoGen and were dissolved in endotoxin-free water to a concentration 1 mg/mL, vortexed until complete solubilization, and stored in aliquots at −20° C. […] On day 2, secreted alkaline phosphatase (SEAP) activity was detected in cell culture supernatants. […]
measurement type: IC50 (µM)
Write the value in µM as a bare number.

INSERT INTO measurements (compound_smiles, measurement_type, unit_text, observed) VALUES
  ('COc1cc(/C=C/c2ccc3c(c2)CCCO3)cc(C=O)c1O', 'IC50', 'µM', 1.7);

Just so you know, measured IC50 for "Oc1c(F)cc(/C=C/c2ccc(N3CCCC3)cc2)cc1C1OCCCO1" came out at 1.2

IC50 recorded for this compound, "O=Cc1c(O)cc(/C=C/c2ccc(N3CCCC3)cc2)cc1F" , is 1.3

IC50 measured on "COc1cc(-c2cc3c(s2)CCN(CCF)C3)cc(C=O)c1O" = 5.9
